Provide the reported growth inhibition of each item.
# test: NCI Yeast Anticancer Drug Screen. Data for the rad50 strain (AID 155);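 further: 0% = growth of vehicle-only cultures of the same strain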
# experimental-setup: S. cerevisiae rad50 strain growth inhibition; at 5.0 µM (retest, dose inferred, filed as 0.5); stronger effect = higher value
The panel holds about 79,000 compounds, 15% with a hit somewhere; the sample as a whole holds those more often.
Give bare numbers, in %.

Recorded growth inhibition, per entry:
{"compound": "CCc1cccc(CC)c1NC(=S)N/C=C(\\C#N)C(=O)c1ccc2ccccc2c1", "measured-value": 7}
{"compound": "CC(=O)O/C=C1\\c2ccccc2CCC1c1ccc2ccccc2c1 (stereo unspecified)", "measured-value": 7}
{"compound": "COc1cc(C/C(=C/c2ccc(OC)c3occc23)[N+](=O)[O-])cc(OC)c1OC", "measured-value": 18}
{"compound": "Cc1ccc(S(=O)(=O)Nc2ccc(C)cc2C)cc1", "measured-value": -3}

Hi there! I need growth inhibition for each item below, if you can.
1. Cc1ccc2c(c1)-c1c(c3c(c4c1-c1cc(C)ccc1CC4)C(=O)OC3=O)CC2
2. O=C1/C(=C/c2cccc([N+](=O)[O-])c2)CCCc2ccccc21
3. C=CCc1cccc(/C=N\N=C(/N)NO)c1O
4. CCCCCCCCCCCCCCCCCCOP(=O)([O-])OCC[N+](C)(C)C

Reply:
[14, 4, -1, 14]

For every listed record, write down its growth inhibition.
1. CCN(CC)c1ccc(N=C2C=C(C(=O)Nc3cccc(Cl)c3)C(=O)c3ccccc32)c(C)c1
2. O=C1NC(Cc2ccccc2)C(=O)O1 (stereo unspecified)
3. C=C1C(=O)O[C@@H]2C[C@@]3(C)CCC[C@H](C)C3=C[C@H]12

Reply:
1. -1
2. 0
3. 11

###

# test: NCI Yeast Anticancer Drug Screen. Data for the mec2-1 strain (AID 157)
# experimental-setup: S. cerevisiae mec2-1 strain, at 5.0 µM (retest, dose inferred, filed as 0.5), stronger effect = higher value
Compounds without any hit were thinned out: in the full panel of roughly 79,000, 15% have a hit.
property-label: growth inhibition (%)
Numbers only, in %.

Guide cases for growth inhibition, answers given:
{"compound": "O=C1C2C3C=CC(C3)C2C(=O)C2C3C=CC(C3)C12 (configuration not stated)", "property-label": "growth inhibition", "unit-tag": "%", "measured-value": 58}
{"compound": "CN1C/C(=C\\c2ccccc2)C(=O)/C(=C/c2ccccc2)C1", "property-label": "growth inhibition", "unit-tag": "%", "measured-value": 16}
{"compound": "CCCCCCCCCCC[n+]1ccc(C#N)cc1", "property-label": "growth inhibition", "unit-tag": "%", "measured-value": 10}
{"compound": "CCOc1ccnc2c(C)c3c([nH]c4ccccc43)c(C)c12", "property-label": "growth inhibition", "unit-tag": "%", "measured-value": 23}
{"compound": "COc1ccc(/C=C2\\CCCc3ccccc3C2=O)cc1", "property-label": "growth inhibition", "unit-tag": "%", "measured-value": 2}
{"compound": "[O-][n+]1c2ccccc2nc2cc(Cl)ccc21", "property-label": "growth inhibition", "unit-tag": "%", "measured-value": -35}

Quick one: give me growth inhibition for each item below, same order please.
1. CCCCC(Oc1cc(C(C)(C)C)c(O)c(C(C)(C)C)c1)C(=O)O (configuration not stated)
2. CC1CN(CCCN2c3ccccc3Sc3ccc(Cl)cc32)C(C)(C)C1 (configuration not stated)
3. Cc1ccc(N2C(=O)CCSC2=S)cc1C
4. COc1cccc(C2c3cc4c(cc3OC(NNc3ccccc3)C2C)OCO4)c1OC (configuration not stated)
5. CSc1c(C)n([O-])c2cc(Cl)c(Cl)cc2[n+]1=O
6. CCCN(CCC)C(=O)c1nc(N)nc(-c2ccc(OC)cc2)c1-c1ccc(OC)cc1

Reply:
12
5
0
3
14
-1
